B1: FLAG-tagged KIR3DL1*001 [human] / HLA-B*57:01-LF9 tetramer [human | not stated] (parent complex)
chain 1: HMGGQDKPFLSAWPSAVVPRGGHVTLRCHYRHRFNNFMLYKEDRIHIPIFHGRIFQESFNMSPVTTAHAGNYTCRGSHPHSPTGWSAPSNPVVIMVTGNHRKPSLLAHPGPLVKSGERVILQCWSDIMFEHFFLHKEGISKDPSRLVGQIHDGVSKANFSIGPMMLALAGTYRCYGSVTHTPYQLSAPSDPLDIVVTGPYEKPSLSAQPGPKVQAGESVTLSCSSRSSYDMYHLSREGGAHERRLPAVRKVNRTFQADFPLGPATHGGTYRCFGSFRHSPYEWSDPSDPLLVSVTGNPSSSWPSPTEPSSKSGNPRHLHILIGTSVVIILFILLLFFLLHLWCSNKKNAAVMDQEPAGNRTANSEDSDEQDPEEVTYAQLDHCVFTQRKITRPSQRPKTPPTDTILYTELPNAKPRSKVVSCP
chain 2: not shown
chain 3: not shown
chain 4: LSSPVTKSF

Variants of: B1
ASSAY_COMMENT: pHLA tetramer staining of transfected HEK293T cells; read off a plot
PARAMETER: response

Exercise: Report response for chain 4 S8H please.
Key: ~99

Exercise: And what about the variant chain 4 S8F ?
Key: ~110

Exercise: And what about the variant chain 4 S8A ?
Key: ~57

Exercise: And what about the variant chain 4 S8R ?
Key: ~72

Exercise: And what about the variant chain 4 S8L ?
Key: ~58
